Numbers sourced from paper PMC6474360.

- target-or-system: sperm whale myoglobin (ferric Mb^III), wild-type (Physeter macrocephalus, UniProt P02185, D123N)
- Sequence (P02185 whole entry D123N): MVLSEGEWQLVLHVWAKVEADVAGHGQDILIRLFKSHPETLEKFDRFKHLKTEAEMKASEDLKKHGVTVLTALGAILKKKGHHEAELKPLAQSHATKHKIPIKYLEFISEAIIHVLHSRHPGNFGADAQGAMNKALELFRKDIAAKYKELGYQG
- procedure-summary: UV-vis titration
result-type: pKd
Scale explanation: pKd corresponds to minus log10 of a concentration expressed in moles per litre.

Name the recorded pKd for O=NO [nitrite] . 1.91

* * *

- target-or-system: sperm whale myoglobin (ferric Mb^III), H64A mutant (Physeter macrocephalus, UniProt P02185, D123N/H65A)
- Sequence (P02185 whole entry H65A/D123N): as the sequence (P02185 whole entry D123N) above, with H65A counted along it
- procedure-summary: X-ray crystal structure
result-type: Kd

Name the recorded Kd for O=NO . > 20 mM

* * *

- target-or-system: sperm whale myoglobin (ferrous Mb^II), H64Q mutant (Physeter macrocephalus, UniProt P02185, D123N/H65Q)
- Sequence (P02185 whole entry H65Q/D123N): as the sequence (P02185 whole entry D123N) above, with H65Q counted along it
- procedure-summary: UV-vis titration
- Format: binding
result-type: pKd
Scale explanation: pKd corresponds to minus log10 of a concentration expressed in moles per litre.

Name the recorded pKd for O=NO . 2.84

* * *

- target-or-system: sperm whale myoglobin (ferrous Mb^II), V68A/I107Y mutant (Physeter macrocephalus, UniProt P02185, D123N/I108Y/V69A)
- Sequence (P02185 whole entry V69A/I108Y/D123N): as the sequence (P02185 whole entry D123N) above, with V69A, I108Y counted along it
- procedure-summary: UV-vis titration
- Assay type: binding
result-type: Kd (mM)
Reply with just the number (in mM).

Name the recorded Kd for O=NO . 19.4
